- Tested on: SK-MEL-2
- runDescription: Growth inhibition of human SK-MEL-2 cells at 10 uM after 48 hrs by SRB method
- Format: functional
- conditionSummary: SK-MEL-2, 48 h, read-out: GI
Catalogue of compounds with associated inhibition of growth at 10 µM
Reply numerically in %, unit not repeated.

// below: answered compounds
[[record]]
cpdsmiles = "O=C(CN1CCN(c2nnc(-c3ccccc3)c3ccccc23)CC1)Nc1ccc(Cl)cc1"
outcomemeasure = "inhibition of growth at 10 µM"
measureunit = "%"
number = 33

[[record]]
cpdsmiles = "O=C(CN1CCN(c2nnc(-c3ccccc3)c3ccccc23)CC1)Nc1nc(-c2ccc(Cl)cc2)cs1"
outcomemeasure = "inhibition of growth at 10 µM"
measureunit = "%"
number = 31

[[record]]
cpdsmiles = "O=C(CN1CCN(c2nnc(-c3ccccc3)c3ccccc23)CC1)Nc1nc(-c2ccccc2)cs1"
outcomemeasure = "inhibition of growth at 10 µM"
measureunit = "%"
number = 40

[[record]]
cpdsmiles = "CCOC(=O)c1ccc(NC(=O)CN2CCN(c3nnc(-c4ccccc4)c4ccccc34)CC2)cc1"
outcomemeasure = "inhibition of growth at 10 µM"
measureunit = "%"
number = 78


Field: next compound
Record `Cc1nc(NC(=O)CN2CCN(c3nnc(-c4ccccc4)c4ccccc34)CC2)sc1C(=O)Nc1ccccc1` / SK-MEL-2, inhibition of growth at 10 µM recorded as 46

----------
- Tested on: SR
- runDescription: Growth inhibition of human SR cells at 10 uM after 48 hrs by SRB method
- Type: functional
- conditionSummary: read-out: GI
outcomeMeasure: inhibition of growth at 10 µM (%)
Reply numerically in %, unit not repeated.

// below: answered molecules
[[record]]
cpdsmiles = "O=C(CN1CCN(c2nnc(-c3ccccc3)c3ccccc23)CC1)Nc1ccc(Cl)cc1"
number = 40

[[record]]
cpdsmiles = "O=C(CN1CCN(c2nnc(-c3ccccc3)c3ccccc23)CC1)Nc1cccc(C(F)(F)F)c1"
number = 55

[[record]]
cpdsmiles = "O=C(CN1CCN(c2nnc(-c3ccccc3)c3ccccc23)CC1)Nc1nccs1"
number = 31


The measured inhibition of growth at 10 µM associated with `Cc1nc(NC(=O)CN2CCN(c3nnc(-c4ccccc4)c4ccccc34)CC2)sc1C(=O)Nc1ccccc1` reads 70
